protein stability index values for the variants below.
B1: OAS1 (parent)
chain: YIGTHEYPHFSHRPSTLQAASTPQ

- Variants of: B1
- method-description: protein stability index of a GFP-peptide fusion (GPS, HEK-293T) (PSI 1-6); higher = more stable;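 further: lentivirally expressed fusions sorted by FACS into six bins by GFP to DsRed ratio, PSI derived from sequencing read proportions per bin multiplied by bin number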
- assay-context: c terminus: a fixed tail appended
I only need the number, thanks.

Below, each entry is followed by its recorded protein stability index result.
H12A : 1.97
S11A : 1.96

Kindly review the next variant as well.
S15Q yielded protein stability index of 1.99
